# Measurement target: P-gp (Homo sapiens)
# Construct: doxorubicin resistant K562/DOX cell line overexpresses almost exclusively the transporter membrane protein P-gp; endogenous in cells; host or cells: K562/DOX (doxorubicin-selected human erythroleukemia cells)
# Experiment: Rhodamine-123 uptake test on K562/DOX cells (flow cytometry)
# Format: cell-based
# Assay context: compound 30 µM
Endpoint name: FR (fluorescence ratio, Rhd 123 uptake with/without modulator)
Give bare numbers.

Field: example entries. Status: answers known.
Ask: Return reported FR (fluorescence ratio, Rhd 123 uptake with/without modulator). Input compound: COc1cc(/C=C/C(=O)OCCCCCN(C)CCCOC(=O)c2ccc(S(N)(=O)=O)cc2)cc(OC)c1OC
Result: 3.90

Ask: Return reported FR (fluorescence ratio, Rhd 123 uptake with/without modulator). Input compound: CN(CCCCCCCOC(=O)c1c2ccccc2cc2ccccc12)CCOC(=O)COc1ccc2ccc(=O)oc2c1
Result: 4.22

Ask: Return reported FR (fluorescence ratio, Rhd 123 uptake with/without modulator). Input compound: COc1cc(/C=C/C(=O)OCCCCCN(C)CCCCCOC(=O)c2ccc(S(N)(=O)=O)cc2)cc(OC)c1OC
Result: 4.99

Proceed to the following item.
Ask: Return reported FR (fluorescence ratio, Rhd 123 uptake with/without modulator). Input compound: COc1cc(/C=C/C(=O)OCCCN(C)CCCCCOC(=O)COc2ccc3ccc(=O)oc3c2)cc(OC)c1OC
Result: 5.81

----------
Quick note: these are Ki numbers for system: hCA XII (Homo sapiens, UniProt O43570)
Sequence (O43570 25-354): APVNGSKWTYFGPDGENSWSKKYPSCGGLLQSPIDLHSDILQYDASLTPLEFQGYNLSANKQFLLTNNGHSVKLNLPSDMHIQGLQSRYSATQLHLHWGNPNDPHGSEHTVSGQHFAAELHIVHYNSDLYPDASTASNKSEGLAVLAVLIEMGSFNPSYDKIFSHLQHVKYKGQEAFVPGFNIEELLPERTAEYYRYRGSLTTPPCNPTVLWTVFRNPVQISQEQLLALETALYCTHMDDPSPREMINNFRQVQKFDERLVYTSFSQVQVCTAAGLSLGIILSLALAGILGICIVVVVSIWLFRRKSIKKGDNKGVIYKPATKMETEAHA
Give bare numbers, in nM.

Field: example entries. Status: answers known.
Ask: Return reported Ki. Input compound: COc1cc(/C=C/C(=O)OCCCCCCCN(C)CCCCCCCOC(=O)c2ccc(S(N)(=O)=O)cc2)cc(OC)c1OC
Result: 96.7

Ask: Return reported Ki. Input compound: COc1cc(/C=C/C(=O)OCCCCCN(C)CCCCCOC(=O)c2ccc(S(N)(=O)=O)cc2)cc(OC)c1OC
Result: 62.6

Ask: Return reported Ki. Input compound: COc1cc(/C=C/C(=O)OCCCCCCCN(C)CCOC(=O)COc2ccc3ccc(=O)oc3c2)cc(OC)c1OC
Result: 9.1

Proceed to the following item.
Ask: Return reported Ki. Input compound: CN(CCCCCCCOC(=O)c1c2ccccc2cc2ccccc12)CCOC(=O)c1ccc(S(N)(=O)=O)cc1
Result: 23.5

----------
# Test system: LoVo/DOX cells
# Experiment: Doxorubicin IC50 and IC20 evaluation on LoVo/DOX cells (MTT)
# Assay context: Homo sapiens, LoVo, 72 h, read-out: doxorubicin IC50
Endpoint name: pIC50
Answers are plain numbers, as −log10 of the molar value.

Ask: State recorded pIC50 with LoVo/DOX cells, entry COc1cccc2c1C(=O)c1c(O)c3c(c(O)c1C2=O)C[C@@](O)(C(=O)CO)C[C@@H]3O[C@H]1C[C@H](N)[C@H](O)[C@H](C)O1 , no comment.
Result: 6.07

----------
# Measurement target: P-gp (Homo sapiens)
# Construct: doxorubicin resistant K562/DOX cell line overexpresses almost exclusively the transporter membrane protein P-gp; endogenous in cells; host or cells: K562/DOX (doxorubicin-selected human erythroleukemia cells)
# Experiment: Rhodamine-123 uptake test on K562/DOX cells (flow cytometry)
# Type: cell-based
# Assay context: compound 3 µM
Endpoint name: FR (fluorescence ratio, Rhd 123 uptake with/without modulator)
Numbers only.

Ask: Return reported FR (fluorescence ratio, Rhd 123 uptake with/without modulator). Input compound: COc1cc(C(=O)OCCCN(C)CCCCCOC(=O)COc2ccc3ccc(=O)oc3c2)cc(OC)c1OC
Result: 1.00

Ask: Return reported FR (fluorescence ratio, Rhd 123 uptake with/without modulator). Input compound: COc1cc(C(=O)OCCCCCCCN(C)CCOC(=O)COc2ccc3ccc(=O)oc3c2)cc(OC)c1OC
Result: 1.11

Ask: Return reported FR (fluorescence ratio, Rhd 123 uptake with/without modulator). Input compound: CN(CCCCCCOC(=O)c1c2ccccc2cc2ccccc12)CCCOC(=O)c1ccc(S(N)(=O)=O)cc1
Result: 1.08

Ask: Return reported FR (fluorescence ratio, Rhd 123 uptake with/without modulator). Input compound: COc1cc(/C=C/C(=O)OCCCCCN(C)CCCCCOC(=O)c2ccc(S(N)(=O)=O)cc2)cc(OC)c1OC
Result: 1.00

Hello, I would appreciate it if you could give FR (fluorescence ratio, Rhd 123 uptake with/without modulator) for each entry below.
1. COc1cc(/C=C/C(=O)OCCCN(C)CCCCCOC(=O)c2ccc(S(N)(=O)=O)cc2)cc(OC)c1OC
2. COc1cc(/C=C/C(=O)OCCCCCCCN(C)CCCCCCCOC(=O)c2ccc(S(N)(=O)=O)cc2)cc(OC)c1OC

Result:
1. 1.08
2. 2.85

Ask: Return reported FR (fluorescence ratio, Rhd 123 uptake with/without modulator). Input compound: COc1cc(/C=C/C(=O)OCCCCCCN(C)CCCOC(=O)c2ccc(S(N)(=O)=O)cc2)cc(OC)c1OC
Result: 1.06

----------
# Measurement target: hCA XII (Homo sapiens, UniProt O43570)
What pKi was measured for each of the following?
Give bare numbers, as −log10 of the molar value.

Field: example entries. Status: answers known.
Ask: Return reported pKi. Input compound: COc1cc(/C=C/C(=O)OCCCCCCN(C)CCCCOC(=O)COc2ccc3ccc(=O)oc3c2)cc(OC)c1OC [Compound 6]
Result: 7.44

Ask: Return reported pKi. Input compound: COc1cc(/C=C/C(=O)OCCCCCN(C)CCCOC(=O)c2ccc(S(N)(=O)=O)cc2)cc(OC)c1OC [Compound 17]
Result: 7.48

Ask: Return reported pKi. Input compound: COc1cc(C(=O)OCCCCCCCN(C)CCOC(=O)c2ccc(S(N)(=O)=O)cc2)cc(OC)c1OC [Compound 25]
Result: 8.10

Ask: Return reported pKi. Input compound: COc1cc(C(=O)OCCCCCCCN(C)CCOC(=O)COc2ccc3ccc(=O)oc3c2)cc(OC)c1OC [Compound 11]
Result: 8.08

Ask: Return reported pKi. Input compound: CN(CCCCCCCOC(=O)c1c2ccccc2cc2ccccc12)CCOC(=O)COc1ccc2ccc(=O)oc2c1 [Compound 14]
Result: 7.37

Hello, I would appreciate it if you could give pKi for each entry below.
1. COc1cc(/C=C/C(=O)OCCCN(C)CCCCCOC(=O)c2ccc(S(N)(=O)=O)cc2)cc(OC)c1OC [Compound 16]
2. CN(CCCCCCOC(=O)c1c2ccccc2cc2ccccc12)CCCOC(=O)COc1ccc2ccc(=O)oc2c1 [Compound 13]

Result:
[7.03, 8.04]

----------
# Measurement target: P-gp (Homo sapiens, UniProt P08183)
# Construct: doxorubicin resistant K562/DOX cell line overexpresses almost exclusively the transporter membrane protein P-gp; endogenous in cells; host or cells: K562/DOX (doxorubicin-selected human erythroleukemia cells)
# Sequence (P08183 whole entry): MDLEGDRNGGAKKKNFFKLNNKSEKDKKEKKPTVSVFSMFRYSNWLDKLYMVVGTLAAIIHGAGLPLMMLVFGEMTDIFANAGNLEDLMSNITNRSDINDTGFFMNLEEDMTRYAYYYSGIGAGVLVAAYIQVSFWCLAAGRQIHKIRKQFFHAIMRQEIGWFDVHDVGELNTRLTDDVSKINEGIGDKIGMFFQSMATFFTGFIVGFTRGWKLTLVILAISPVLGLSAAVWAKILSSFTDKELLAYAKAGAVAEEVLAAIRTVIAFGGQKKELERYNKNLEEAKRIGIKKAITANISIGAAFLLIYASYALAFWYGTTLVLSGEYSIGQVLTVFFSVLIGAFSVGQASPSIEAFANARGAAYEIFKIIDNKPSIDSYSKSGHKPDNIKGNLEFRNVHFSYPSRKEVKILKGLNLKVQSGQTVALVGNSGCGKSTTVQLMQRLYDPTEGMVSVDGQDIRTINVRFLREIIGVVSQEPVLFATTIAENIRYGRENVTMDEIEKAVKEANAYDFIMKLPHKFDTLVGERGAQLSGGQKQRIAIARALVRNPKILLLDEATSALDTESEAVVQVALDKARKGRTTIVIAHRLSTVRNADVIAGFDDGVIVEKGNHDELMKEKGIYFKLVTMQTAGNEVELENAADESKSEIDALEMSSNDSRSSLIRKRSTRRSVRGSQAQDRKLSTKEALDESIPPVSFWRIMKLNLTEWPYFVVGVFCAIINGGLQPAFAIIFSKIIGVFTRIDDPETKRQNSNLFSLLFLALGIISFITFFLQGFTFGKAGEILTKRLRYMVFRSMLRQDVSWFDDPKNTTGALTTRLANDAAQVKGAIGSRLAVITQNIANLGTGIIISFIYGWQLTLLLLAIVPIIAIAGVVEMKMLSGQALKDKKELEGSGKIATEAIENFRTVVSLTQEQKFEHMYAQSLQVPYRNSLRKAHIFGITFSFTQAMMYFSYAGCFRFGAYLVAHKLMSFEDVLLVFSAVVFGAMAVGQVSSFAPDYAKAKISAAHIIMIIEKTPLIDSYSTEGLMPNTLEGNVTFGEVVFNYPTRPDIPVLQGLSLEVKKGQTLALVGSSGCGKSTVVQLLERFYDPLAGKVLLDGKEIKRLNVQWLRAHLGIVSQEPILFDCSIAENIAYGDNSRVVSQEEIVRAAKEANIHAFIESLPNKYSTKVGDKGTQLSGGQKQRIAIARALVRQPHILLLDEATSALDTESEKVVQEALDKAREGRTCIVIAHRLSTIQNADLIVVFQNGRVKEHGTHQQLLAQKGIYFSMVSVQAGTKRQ
# Experiment: Rhodamine-123 uptake test on LoVo/DOX cells (flow cytometry)
# Type: cell-based
# Assay context: compound 10 µM
Endpoint name: FR (fluorescence ratio, Rhd 123 uptake)
Give bare numbers.

Field: example entries. Status: answers known.
Ask: Return reported FR (fluorescence ratio, Rhd 123 uptake). Input molecule: COc1cc(/C=C/C(=O)OCCCN(C)CCCCCOC(=O)COc2ccc3ccc(=O)oc3c2)cc(OC)c1OC
Result: 10.50

Ask: Return reported FR (fluorescence ratio, Rhd 123 uptake). Input molecule: COc1cc(/C=C/C(=O)OCCCCCCCN(C)CCCCCCCOC(=O)COc2ccc3ccc(=O)oc3c2)cc(OC)c1OC
Result: 9.90

Ask: Return reported FR (fluorescence ratio, Rhd 123 uptake). Input molecule: COc1cc(/C=C/C(=O)OCCCCCCCN(C)CCOC(=O)COc2ccc3ccc(=O)oc3c2)cc(OC)c1OC
Result: 12.60

Proceed to the following item.
Ask: Return reported FR (fluorescence ratio, Rhd 123 uptake). Input molecule: COc1cc(/C=C/C(=O)OCCCCCCN(C)CCCOC(=O)COc2ccc3ccc(=O)oc3c2)cc(OC)c1OC
Result: 6.30

----------
Quick note: these are pKi numbers for system: hCA IX (Homo sapiens)
Answers are plain numbers, as −log10 of the molar value.

Field: example entries. Status: answers known.
Ask: Return reported pKi. Input compound: COc1cc(/C=C/C(=O)OCCCCCCN(C)CCCCOC(=O)c2ccc(S(N)(=O)=O)cc2)cc(OC)c1OC
Result: 7.47

Ask: Return reported pKi. Input compound: COc1cc(/C=C/C(=O)OCCCCCCN(C)CCCOC(=O)COc2ccc3ccc(=O)oc3c2)cc(OC)c1OC
Result: 7.57

Next:
Ask: Return reported pKi. Input compound: CN(CCCCCCCOC(=O)c1c2ccccc2cc2ccccc12)CCOC(=O)COc1ccc2ccc(=O)oc2c1
Result: 6.90

----------
Quick note: these are pKi numbers for system: hCA I (Homo sapiens, UniProt P00915)
Sequence (P00915 whole entry): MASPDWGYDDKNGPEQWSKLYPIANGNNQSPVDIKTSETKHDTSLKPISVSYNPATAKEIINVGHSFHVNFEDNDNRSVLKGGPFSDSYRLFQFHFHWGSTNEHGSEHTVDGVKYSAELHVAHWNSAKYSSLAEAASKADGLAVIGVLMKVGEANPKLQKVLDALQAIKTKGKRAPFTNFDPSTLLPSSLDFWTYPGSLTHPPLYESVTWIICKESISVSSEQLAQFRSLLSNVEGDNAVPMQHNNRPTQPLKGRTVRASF
One number for each entry, as −log10 of the molar value.

Field: example entries. Status: answers known.
Ask: Return reported pKi. Input compound: COc1cc(C(=O)OCCCCCCN(C)CCCOC(=O)c2ccc(S(N)(=O)=O)cc2)cc(OC)c1OC
Result: 7.08

Ask: Return reported pKi. Input compound: COc1cc(/C=C/C(=O)OCCCCCCN(C)CCCOC(=O)c2ccc(S(N)(=O)=O)cc2)cc(OC)c1OC
Result: 6.29

Hello, I would appreciate it if you could give pKi for each entry below.
1. COc1cc(/C=C/C(=O)OCCCCCN(C)CCCOC(=O)c2ccc(S(N)(=O)=O)cc2)cc(OC)c1OC
2. CN(CCCCCCCOC(=O)c1c2ccccc2cc2ccccc12)CCOC(=O)c1ccc(S(N)(=O)=O)cc1
3. COc1cc(/C=C/C(=O)OCCCN(C)CCCCCOC(=O)c2ccc(S(N)(=O)=O)cc2)cc(OC)c1OC

Result:
1: 7.25; 2: 6.62; 3: 6.35

Hello, I would appreciate it if you could give pKi for each entry below.
1. COc1cc(C(=O)OCCCN(C)CCCCCOC(=O)c2ccc(S(N)(=O)=O)cc2)cc(OC)c1OC
2. COc1cc(/C=C/C(=O)OCCCCCN(C)CCCCCOC(=O)c2ccc(S(N)(=O)=O)cc2)cc(OC)c1OC
3. COc1cc(/C=C/C(=O)OCCCCCCN(C)CCCCOC(=O)c2ccc(S(N)(=O)=O)cc2)cc(OC)c1OC

Result:
[6.55, 7.20, 7.07]
